- Tested on: A549 cells (human lung carcinoma cells)
- run description: SRB cytotoxicity assay, A549 cells
- Format: cell-based
- measurement parameters: 10 μM, 72 h, SRB
Each record gets a class by inhibition at 10 µM: low interval: < 50%; middle interval: ≥ 50% and < 70%; high interval: ≥ 70%

Example entries begin here.
{"molecule": "CC(C)(C)c1cc2c(O)c(c1)Cc1cc(C(C)(C)C)cc(c1OCC(=O)NCCO)Cc1cc(C(C)(C)C)cc(c1O)Cc1cc(C(C)(C)C)cc(c1OCC(=O)NCCO)C2 [CLX-4, reference compound]", "assayed target": "A549 cells (human lung carcinoma cells)", "assigned category": "high interval"}
{"molecule": "CCCCCNC(=O)COc1c2cc(C(C)(C)C)cc1Cc1cc(C(C)(C)C)cc(c1O)Cc1cc(C(C)(C)C)cc(c1OCC(=O)NCCCCC)Cc1cc(C(C)(C)C)cc(c1O)COC2", "assayed target": "A549 cells (human lung carcinoma cells)", "assigned category": "middle interval"}
{"molecule": "CC(C)(C)c1cc2c(O)c(c1)Cc1cc(C(C)(C)C)cc3c1OCC(=O)NCCCCNC(=O)COc1c(cc(C(C)(C)C)cc1Cc1cc(C(C)(C)C)cc(c1O)C3)COC2", "assayed target": "A549 cells (human lung carcinoma cells)", "assigned category": "low interval"}
{"molecule": "CC(C)(C)c1cc2c(O)c(c1)Cc1cc(C(C)(C)C)cc3c1OCC(=O)NCCNC(=O)COc1c(cc(C(C)(C)C)cc1Cc1cc(C(C)(C)C)cc(c1O)C3)COC2", "assayed target": "A549 cells (human lung carcinoma cells)", "assigned category": "middle interval"}
{"molecule": "CC(C)(C)c1cc2c(O)c(c1)Cc1cc(C(C)(C)C)cc(c1OCC(=O)NCCc1ccccc1)Cc1cc(C(C)(C)C)cc(c1O)Cc1cc(C(C)(C)C)cc(c1OCC(=O)NCCc1ccccc1)COC2", "assayed target": "A549 cells (human lung carcinoma cells)", "assigned category": "middle interval"}
{"molecule": "CC(C)(C)c1cc2c(O)c(c1)Cc1cc(C(C)(C)C)cc(c1OCC(=O)NCCCCCCN)Cc1cc(C(C)(C)C)cc(c1O)Cc1cc(C(C)(C)C)cc(c1OCC(=O)NCCCCCCN)COC2", "assayed target": "A549 cells (human lung carcinoma cells)", "assigned category": "high interval"}
{"molecule": "CCCCNC(=O)COc1c2cc(C(C)(C)C)cc1Cc1cc(C(C)(C)C)cc(c1O)Cc1cc(C(C)(C)C)cc(c1OCC(=O)NCCCC)Cc1cc(C(C)(C)C)cc(c1O)COC2", "assayed target": "A549 cells (human lung carcinoma cells)", "assigned category": "middle interval"}
{"molecule": "CC(C)NC(=O)COc1c2cc(C(C)(C)C)cc1Cc1cc(C(C)(C)C)cc(c1O)Cc1cc(C(C)(C)C)cc(c1OCC(=O)NC(C)C)Cc1cc(C(C)(C)C)cc(c1O)COC2", "assayed target": "A549 cells (human lung carcinoma cells)", "assigned category": "low interval"}

Which class is correct for the following molecule? `CC(C)CNC(=O)COc1c2cc(C(C)(C)C)cc1Cc1cc(C(C)(C)C)cc(c1O)Cc1cc(C(C)(C)C)cc(c1OCC(=O)NCC(C)C)Cc1cc(C(C)(C)C)cc(c1O)COC2`
middle interval

Which class is correct for the following molecule? `CC(C)(C)c1cc2c(O)c(c1)Cc1cc(C(C)(C)C)cc(c1OCC(=O)NCCO)Cc1cc(C(C)(C)C)cc(c1O)Cc1cc(C(C)(C)C)cc(c1OCC(=O)NCCO)COC2`
high interval

Could you place `COc1ccc(CCNC(=O)COc2c3cc(C(C)(C)C)cc2Cc2cc(C(C)(C)C)cc(c2O)Cc2cc(C(C)(C)C)cc(c2OCC(=O)NCCc2ccc(OC)c(OC)c2)Cc2cc(C(C)(C)C)cc(c2O)COC3)cc1OC` in its proper category? Many thanks.
low interval

Band for `CC(C)(C)c1cc2c(O)c(c1)Cc1cc(C(C)(C)C)cc(c1OCC(=O)NC1CCCC1)Cc1cc(C(C)(C)C)cc(c1O)Cc1cc(C(C)(C)C)cc(c1OCC(=O)NC1CCCC1)COC2` ?
middle interval

---

- Test system: A549 cells (human lung carcinoma cells)
- run description: SRB cytotoxicity assay, A549 cells
- Type: cell-based
- measurement parameters: 72 h, SRB, read-out: IC50 (μM) A549
Cut-off 7 µM on IC50: below means rule met, at or above means rule not met.

{"compound": "CC(C)(C)c1cc2c(O)c(c1)Cc1cc(C(C)(C)C)cc(c1OCC(=O)NCCO)Cc1cc(C(C)(C)C)cc(c1O)Cc1cc(C(C)(C)C)cc(c1OCC(=O)NCCO)C2 [CLX-4, reference compound]", "assigned category": "rule met"}
{"compound": "CC(C)(C)c1cc2c(O)c(c1)Cc1cc(C(C)(C)C)cc3c1OCC(=O)NCCNC(=O)COc1c(cc(C(C)(C)C)cc1Cc1cc(C(C)(C)C)cc(c1O)C3)COC2", "assigned category": "rule not met"}
{"compound": "CC(C)(C)c1cc2c(O)c(c1)Cc1cc(C(C)(C)C)cc3c1OCC(=O)NCCCNC(=O)COc1c(cc(C(C)(C)C)cc1Cc1cc(C(C)(C)C)cc(c1O)C3)COC2", "assigned category": "rule met"}

We now examine a further compound.
Here's an entry: `CC(C)CNC(=O)COc1c2cc(C(C)(C)C)cc1Cc1cc(C(C)(C)C)cc(c1O)Cc1cc(C(C)(C)C)cc(c1OCC(=O)NCC(C)C)Cc1cc(C(C)(C)C)cc(c1O)COC2` . Is its IC50 below 7 µM?
rule not met

---

- Tested on: A549 cells (human lung carcinoma cells)
- run description: SRB cytotoxicity assay, A549 cells
- Assay type: cell-based
- measurement parameters: 72 h, SRB, read-out: IC50 (μM) A549
Criterion: IC50 strictly under 3 µM. Met: MET. Not met: NOT MET.

{"compound string": "CC(C)(C)c1cc2c(O)c(c1)Cc1cc(C(C)(C)C)cc(c1OCC(=O)N(CCO)CCO)Cc1cc(C(C)(C)C)cc(c1O)Cc1cc(C(C)(C)C)cc(c1OCC(=O)N(CCO)CCO)COC2", "assigned category": "NOT MET"}
{"compound string": "CC(C)(C)c1cc2c(O)c(c1)Cc1cc(C(C)(C)C)cc(c1OCC(=O)NCCCCCCN)Cc1cc(C(C)(C)C)cc(c1O)Cc1cc(C(C)(C)C)cc(c1OCC(=O)NCCCCCCN)COC2", "assigned category": "MET"}
{"compound string": "CC(C)(C)c1cc2c(O)c(c1)Cc1cc(C(C)(C)C)cc(c1OCC(=O)NCCO)Cc1cc(C(C)(C)C)cc(c1O)Cc1cc(C(C)(C)C)cc(c1OCC(=O)NCCO)COC2", "assigned category": "MET"}
{"compound string": "CCCCCNC(=O)COc1c2cc(C(C)(C)C)cc1Cc1cc(C(C)(C)C)cc(c1O)Cc1cc(C(C)(C)C)cc(c1OCC(=O)NCCCCC)Cc1cc(C(C)(C)C)cc(c1O)COC2", "assigned category": "MET"}
{"compound string": "CC(C)(C)c1cc2c(O)c(c1)Cc1cc(C(C)(C)C)cc(c1OCC(=O)NCCCCN)Cc1cc(C(C)(C)C)cc(c1O)Cc1cc(C(C)(C)C)cc(c1OCC(=O)NCCCCN)COC2", "assigned category": "NOT MET"}

In the record for `CC(C)(C)c1cc2c(O)c(c1)Cc1cc(C(C)(C)C)cc(c1OCC(=O)NC1CCCC1)Cc1cc(C(C)(C)C)cc(c1O)Cc1cc(C(C)(C)C)cc(c1OCC(=O)NC1CCCC1)COC2` , is IC50 less than 3 µM?
NOT MET

Determine whether this compound shows IC50 lower than 3 µM (ties excluded): `CC(C)(C)c1cc2c(O)c(c1)Cc1cc(C(C)(C)C)cc(c1OCC(=O)NCCc1ccccc1)Cc1cc(C(C)(C)C)cc(c1O)Cc1cc(C(C)(C)C)cc(c1OCC(=O)NCCc1ccccc1)COC2`
NOT MET

Is IC50 of `CCCCNC(=O)COc1c2cc(C(C)(C)C)cc1Cc1cc(C(C)(C)C)cc(c1O)Cc1cc(C(C)(C)C)cc(c1OCC(=O)NCCCC)Cc1cc(C(C)(C)C)cc(c1O)COC2` strictly below 3 µM?
NOT MET

---

Overview of recorded melting point for various compounds

// below: answered compounds
{"compound string": "CC(C)(C)c1cc2c(O)c(c1)Cc1cc(C(C)(C)C)cc(c1OCC(=O)NCCO)Cc1cc(C(C)(C)C)cc(c1O)Cc1cc(C(C)(C)C)cc(c1OCC(=O)N(CCO)CCO)COC2", "reading": "144.4 to 146.2 °C"}
{"compound string": "CCCCNC(=O)COc1c2cc(C(C)(C)C)cc1Cc1cc(C(C)(C)C)cc(c1O)Cc1cc(C(C)(C)C)cc(c1OCC(=O)NCCCC)Cc1cc(C(C)(C)C)cc(c1O)COC2", "reading": "119.5 to 120.8 °C"}
{"compound string": "CC(C)(C)c1cc2c(O)c(c1)Cc1cc(C(C)(C)C)cc(c1OCC(=O)N(CCO)CCO)Cc1cc(C(C)(C)C)cc(c1O)Cc1cc(C(C)(C)C)cc(c1OCC(=O)N(CCO)CCO)COC2", "reading": "210.7 to 212.5 °C"}
{"compound string": "CC(C)CNC(=O)COc1c2cc(C(C)(C)C)cc1Cc1cc(C(C)(C)C)cc(c1O)Cc1cc(C(C)(C)C)cc(c1OCC(=O)NCC(C)C)Cc1cc(C(C)(C)C)cc(c1O)COC2", "reading": "128.1 to 130.8 °C"}
{"compound string": "CC(C)(C)c1cc2c(O)c(c1)Cc1cc(C(C)(C)C)cc(c1OCC(=O)NCCCCN)Cc1cc(C(C)(C)C)cc(c1O)Cc1cc(C(C)(C)C)cc(c1OCC(=O)NCCCCN)COC2", "reading": "129.4 to 131.2 °C"}
{"compound string": "CC(C)(C)c1cc2c(O)c(c1)Cc1cc(C(C)(C)C)cc3c1OCC(=O)NCCCCNC(=O)COc1c(cc(C(C)(C)C)cc1Cc1cc(C(C)(C)C)cc(c1O)C3)COC2", "reading": "157.6 to 158.7 °C"}
{"compound string": "COc1ccc(CCNC(=O)COc2c3cc(C(C)(C)C)cc2Cc2cc(C(C)(C)C)cc(c2O)Cc2cc(C(C)(C)C)cc(c2OCC(=O)NCCc2ccc(OC)c(OC)c2)Cc2cc(C(C)(C)C)cc(c2O)COC3)cc1OC", "reading": "117.4 to 120.1 °C"}
{"compound string": "CC(C)(C)c1cc2c(O)c(c1)Cc1cc(C(C)(C)C)cc(c1OCC(=O)NCCO)Cc1cc(C(C)(C)C)cc(c1O)Cc1cc(C(C)(C)C)cc(c1OCC(=O)NCCO)COC2", "reading": "139.7 to 142.3 °C"}

Name the recorded melting point for `CCCCCNC(=O)COc1c2cc(C(C)(C)C)cc1Cc1cc(C(C)(C)C)cc(c1O)Cc1cc(C(C)(C)C)cc(c1OCC(=O)NCCCCC)Cc1cc(C(C)(C)C)cc(c1O)COC2` .
117.7 to 119.3 °C

Where these numbers come from: paper PMC6923765
